# System Name: CCR2 (Homo sapiens)
# Assay Name: MCP-1 Receptor Binding Assay in THP-1 Cells
# Recorded Conditions: 0.5 nM 125I labeled MCP-1, 2 hours at 30° C., read-out: Inhibition of MCP-1 Binding IC50, CCR2 Binding
# Method: Compounds of the invention were subjected to various representative biological tests. […] MCP-1 Receptor Binding Assay in THP-1 Cells Human monocytic cell line THP-1 cells were obtained from American Type Culture Collection (Manassas, Va., USA). […] The cell density was maintained […]. 1 μM cold MCP-1 was used for nonspecific binding.
Exercise: for every item that follows, state its recorded IC50.
Unit nM implied. Number only.

(Q) IC50 for O=C(CNC(=O)c1cccc(C(F)(F)F)c1)NC1CN(C2CCC(O)(c3nc4ccc(Br)cc4s3)CC2)C1 (single isomer, unassigned) [Example 36a] ?
(A) 3.8

(Q) I have this compound here, Cc1ccc(C2(O)CCC(N3CC(NC(=O)CNC(=O)c4cc(C(F)(F)F)cc(C(F)(F)F)c4)C3)CC2)cn1 (single isomer, unassigned) [Example 66a] , and I need its recorded IC50.
(A) 330

(Q) Which IC50 is listed for O=C(CNC(=O)c1cc(C(F)(F)F)cc(C(F)(F)F)c1)NC1CN(C2CCC(O)(c3nccs3)CC2)C1 (single isomer, unassigned) [Example 67a] ?
(A) 370

(Q) Return reported IC50; argument: CN(C)Cc1ncc(C2(O)CCC(N3CC(NC(=O)CNC(=O)c4cccc(C(F)(F)F)c4)C3)CC2)s1 (stereo not drawn)
(A) 310

(Q) Please give the measured IC50 for this compound: O=C(CNC(=O)c1cccc(C(F)(F)F)c1)NC1CN(C2CCC(O)(c3ccc(OCc4ccccc4)nc3)CC2)C1 (single isomer, unassigned)
(A) 1900

(Q) Given the compound COc1ccc(C2(O)CCC(N3CC(NC(=O)CNC(=O)c4cccc(C#N)c4)C3)CC2)cn1 (stereo not drawn) , what is its reported IC50?
(A) 7500

* * *

# System Name: UniProt:P41597
# Assay Name: MCP-1 Receptor Binding Assay in THP-1 Cells
# Recorded Conditions: 0.5 nM 125I labeled MCP-1, 2 hours at 30° C., read-out: Inhibition of MCP-1 Binding IC50, CCR2 Binding
# note: exactly 1000 nM is not below, so it is class 0; use class 1 for IC50 strictly under it

(Q) Hello, is IC50 of the following compound strictly smaller than 1000 nM? Nc1ncc(C2(O)CCC(N3CC(NC(=O)CNC(=O)c4cccc(C(F)(F)F)c4)C3)CC2)s1 (centres unmarked)
(A) class 1

(Q) # strict comparison: is reported IC50 < 1000 nM? input = COc1ncc(C2(O)CCC(N3CC(NC(=O)CNC(=O)c4cccc(C(F)(F)F)c4)C3)CC2)s1 (centres unmarked)
(A) class 1

(Q) Hi there! Is IC50 for C[S+]([O-])c1ncc(C2(O)CCC(N3CC(NC(=O)CNC(=O)c4cccc(C(F)(F)F)c4)C3)CC2)s1 (single isomer, unassigned) below 1000 nM, do you know?
(A) class 1

(Q) Input Cc1ccc(C2(O)CCC(N3CC(NC(=O)CNC(=O)c4cc(F)cc(C(F)(F)F)c4)C3)CC2)cn1 (single isomer, unassigned) [Example 64a] ; condition: IC50 strictly below 1000 nM. Does it hold?
(A) class 1

(Q) Is 1000 nM strictly greater than the compound's reported IC50? compound: C#Cc1ncc(C2(O)CCC(N3CC(NC(=O)CNC(=O)c4cccc(C(F)(F)F)c4)C3)CC2)s1 (single isomer, unassigned) [Example 44a]
(A) class 1

(Q) I wonder whether COc1ncc(C2(O)CCC(N3CC(NC(=O)CNC(=O)c4cccc(C(F)(F)F)c4)C3)CC2)c(OC)n1 (single isomer, unassigned) [Example 29a] has IC50 below 1000 nM. Can you tell?
(A) class 0

(Q) Dear reviewer, please state whether N#CNc1ncc(C2(O)CCC(N3CC(NC(=O)CNC(=O)c4cccc(C(F)(F)F)c4)C3)CC2)s1 (centres unmarked) has IC50 strictly beneath 1000 nM.
(A) class 0

(Q) Would you kindly verify if IC50 of CN(C)c1ncc(C2(O)CCC(N3CC(NC(=O)CNC(=O)c4cccc(C(F)(F)F)c4)C3)CC2)s1 (centres unmarked) is strictly less than 1000 nM?
(A) class 1

(Q) Field: below-cutoff. Rule: recorded IC50 strictly less than 1000 nM. Subject: COc1ccc(C2(O)CCC(N3CC(NC(=O)CNC(=O)c4ccc(C(F)(F)F)cc4)C3)CC2)cn1 (centres unmarked)
(A) class 0

(Q) Below 1000 nM on IC50? Entry Cc1ncc(C2(O)CCC(N3CC(NC(=O)CNC(=O)c4cccc(C(F)(F)F)c4)C3)CC2)s1 (single isomer, unassigned) [Example 41a]
(A) class 1

(Q) Regarding COc1cccc(C(=O)NCC(=O)NC2CN(C3CCC(O)(c4ccc(OC)nc4)CC3)C2)c1 (centres unmarked) , kindly confirm whether its IC50 is beneath 1000 nM.
(A) class 0

(Q) Field: below-cutoff. Rule: recorded IC50 strictly less than 1000 nM. Subject: O=C(CNC(=O)c1cccc(C(F)(F)F)c1)NC1CN(C2CCC(O)(c3cnc(O)s3)CC2)C1 (centres unmarked)
(A) class 1

(Q) Item O=C(CNC(=O)c1cc(C(F)(F)F)ccc1C(F)(F)F)NC1CN(C2CCC(O)(c3nccs3)CC2)C1 (centres unmarked) : IC50 beneath 1000 nM, strictly?
(A) class 1

* * *

# System Name: CCR2 (Homo sapiens, UniProt P41597)
# Sequence (P41597 whole entry): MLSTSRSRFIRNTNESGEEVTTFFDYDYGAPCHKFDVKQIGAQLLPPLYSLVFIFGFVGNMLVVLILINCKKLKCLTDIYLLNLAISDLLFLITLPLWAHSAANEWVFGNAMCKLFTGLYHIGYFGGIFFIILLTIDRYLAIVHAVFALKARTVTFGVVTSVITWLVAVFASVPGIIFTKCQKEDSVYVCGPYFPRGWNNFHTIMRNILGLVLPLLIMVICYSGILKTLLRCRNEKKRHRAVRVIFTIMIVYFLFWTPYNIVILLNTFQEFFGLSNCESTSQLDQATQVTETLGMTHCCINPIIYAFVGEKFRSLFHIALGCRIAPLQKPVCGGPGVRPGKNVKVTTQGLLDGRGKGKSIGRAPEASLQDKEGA
# Assay Name: MCP-1 Receptor Binding Assay in THP-1 Cells
# Recorded Conditions: 0.5 nM 125I labeled MCP-1, 2 hours at 30° C., read-out: Inhibition of MCP-1 Binding IC50, CCR2 Binding
Field: IC50. Provide a value for each of the compounds that follow.
Value expressed in µM; do not type the unit.

(Q) Fill blank: measured IC50 of the compound O=C(CNC(=O)c1cc(F)cc(C(F)(F)F)c1)NC1CN(C2CCC(O)(c3cncs3)CC2)C1 (stereo not drawn) is ____.
(A) 0.07

(Q) # input compound: COc1ccc(C2(O)CCC(N3CC(NC(=O)CNC(=O)c4cc(F)cc(F)c4)C3)CC2)cn1 (stereo not drawn) ; wanted: its IC50
(A) 4.3

(Q) Fill blank: measured IC50 of the compound CS(=O)(=O)c1ncc(C2(O)CCC(N3CC(NC(=O)CNC(=O)c4cccc(C(F)(F)F)c4)C3)CC2)s1 (single isomer, unassigned) [Example 47a] is ____.
(A) 0.26

(Q) Which IC50 value is on record for COc1ccc(C2(O)CCC(N3CC(NC(=O)CNC(=O)c4ccc(Cl)c(Cl)c4)C3)CC2)cn1 (stereo not drawn) ?
(A) 0.12

(Q) Which IC50 is reported for this compound? CC(C)(C)Oc1ncc(C2(O)CCC(N3CC(NC(=O)CNC(=O)c4cccc(C(F)(F)F)c4)C3)CC2)s1 (stereo not drawn)
(A) 0.28

(Q) # input compound: C[Si](C)(C)c1ncc(C2(O)CCC(N3CC(NC(=O)CNC(=O)c4cccc(C(F)(F)F)c4)C3)CC2)s1 (single isomer, unassigned) [Example 39a] ; wanted: its IC50
(A) 0.013

(Q) Any idea what its IC50 is? The compound is Cc1csc(C2(O)CCC(N3CC(NC(=O)CNC(=O)c4cccc(C(F)(F)F)c4)C3)CC2)n1 (single isomer, unassigned) [Example 38a]
(A) 0.37

(Q) Look at this compound and give its reported IC50. COc1ccc(C2(O)CCC(N3CC(NC(=O)CNC(=O)c4ccc5c(c4)OCO5)C3)CC2)cn1 (stereo not drawn)
(A) 6.9

(Q) For O=C(CNC(=O)c1cccc(C(F)(F)F)c1)NC1CN(C2CCC(O)(c3ncc(CO)s3)CC2)C1 (single isomer, unassigned) [Example 35a] , what is its reported IC50?
(A) 0.24

(Q) Requested read-out: IC50. Entry: Cn1cc(Br)c(C2(O)CCC(N3CC(NC(=O)CNC(=O)c4cccc(C(F)(F)F)c4)C3)CC2)n1 (single isomer, unassigned) [Example 31a]
(A) 0.44

(Q) Record request: IC50 value, item Cc1ccc(C2(O)CCC(N3CC(NC(=O)CNC(=O)c4cc(C(F)(F)F)ccc4C(F)(F)F)C3)CC2)cn1 (single isomer, unassigned) [Example 69a]
(A) 0.24

(Q) Reported IC50 for COc1ccc(C2(O)CCC(N3CC(NC(=O)CNC(=O)c4cccc(Cl)c4)C3)CC2)cn1 (stereo not drawn) : what is it?
(A) 1.6

(Q) What does the data say about its IC50? Entry: O=C(CNC(=O)c1cccc(C(F)(F)F)c1)NC1CN(C2CCC(O)(c3cccnc3)CC2)C1 (stereo not drawn)
(A) 0.19

(Q) What does the record list as IC50 for COc1ccc(C2(O)CCC(N3CC(NC(=O)CNC(=O)c4cccc(C)c4)C3)CC2)cn1 (stereo not drawn) ?
(A) 2.3

(Q) What value of IC50 has been recorded for this entry: COc1ncc(C2(O)CCC(N3CC(NC(=O)CNC(=O)c4cccc(C(F)(F)F)c4)C3)CC2)cn1 (single isomer, unassigned) [Example 28a]
(A) 1.1
